Experiment: self-splicing fitness, log relative to wild type (ln ratio); higher = more splicing; Tetrahymena group I intron in knt gene, E. coli kanamycin selection, DiMSum; sequences stand for … in CUCUCU…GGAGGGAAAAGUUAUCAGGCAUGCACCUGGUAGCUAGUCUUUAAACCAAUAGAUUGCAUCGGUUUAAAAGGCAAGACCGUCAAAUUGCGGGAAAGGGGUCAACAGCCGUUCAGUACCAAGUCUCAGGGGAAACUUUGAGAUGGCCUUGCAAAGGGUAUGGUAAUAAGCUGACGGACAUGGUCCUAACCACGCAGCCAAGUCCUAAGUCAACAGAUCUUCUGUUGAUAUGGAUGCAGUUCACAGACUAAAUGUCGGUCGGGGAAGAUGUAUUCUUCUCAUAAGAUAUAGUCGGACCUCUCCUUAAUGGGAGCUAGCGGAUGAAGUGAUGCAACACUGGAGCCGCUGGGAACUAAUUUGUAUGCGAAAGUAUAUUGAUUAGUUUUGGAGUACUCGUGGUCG;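 also: selection with 25 µg/mL kanamycin versus none on LB agar overnight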
Conditions: 37 °C
Given measured self-splicing fitness (ln), output yes (1) if it is greater than or equal to -2 and no (0) if not.

[
  {
    "constructSequence": "AGUCAGCAAUAUUACGUCUG",
    "class": "yes (1)"
  },
  {
    "constructSequence": "UGAGAGCAAUAUUACGGGCG",
    "class": "yes (1)"
  },
  {
    "constructSequence": "GUAUAGCAAUAUUACGUUGA",
    "class": "yes (1)"
  },
  {
    "constructSequence": "GUCAAGCAAUAUUACGGCUA",
    "class": "yes (1)"
  },
  {
    "constructSequence": "UAUAAGCAAUAUUACGAUGU",
    "class": "yes (1)"
  },
  {
    "constructSequence": "UAUAAGCAAUAUUACGUAAG",
    "class": "yes (1)"
  },
  {
    "constructSequence": "ACCAAGCAAUAUUACGUGUG",
    "class": "yes (1)"
  },
  {
    "constructSequence": "UUUUAGCAAUAUUACGUCAA",
    "class": "yes (1)"
  },
  {
    "constructSequence": "CGUCAGCAAUAUUACGGGGU",
    "class": "no (0)"
  },
  {
    "constructSequence": "AAGUAGCAAUAUUACGAUAU",
    "class": "yes (1)"
  },
  {
    "constructSequence": "AACUAGCAAUAUUACGUCAG",
    "class": "yes (1)"
  },
  {
    "constructSequence": "GCAUAGCAAUAUUACGGAUU",
    "class": "yes (1)"
  },
  {
    "constructSequence": "GAUCAGCAAUAUUACGCCCA",
    "class": "yes (1)"
  },
  {
    "constructSequence": "CCGCAGCAAUAUUACGGCGU",
    "class": "yes (1)"
  },
  {
    "constructSequence": "UGCCAGCAAUAUUACGCUUU",
    "class": "yes (1)"
  },
  {
    "constructSequence": "CACCAGCAAUAUUACGGAGG",
    "class": "yes (1)"
  },
  {
    "constructSequence": "ACGGAGCAAUAUUACGUAGU",
    "class": "yes (1)"
  },
  {
    "constructSequence": "ACAGAGCAAUAUUACGUUCG",
    "class": "yes (1)"
  },
  {
    "constructSequence": "CCAGAGCAAUAUUACGGUAG",
    "class": "no (0)"
  },
  {
    "constructSequence": "AGCCAGCAAUAUUACGGACA",
    "class": "yes (1)"
  },
  {
    "constructSequence": "ACAAAGCAAUAUUACGACUA",
    "class": "yes (1)"
  },
  {
    "constructSequence": "AGUUAGCAAUAUUACGUCGA",
    "class": "yes (1)"
  },
  {
    "constructSequence": "GAACAGCAAUAUUACGGUCU",
    "class": "yes (1)"
  },
  {
    "constructSequence": "ACACAGCAAUAUUACGUCAG",
    "class": "yes (1)"
  },
  {
    "constructSequence": "AUUGAGCAAUAUUACGGGAG",
    "class": "no (0)"
  },
  {
    "constructSequence": "GUCAAGCAAUAUUACGGUCA",
    "class": "yes (1)"
  },
  {
    "constructSequence": "AGUAAGCAAUAUUACGUUUA",
    "class": "yes (1)"
  },
  {
    "constructSequence": "UAGUAGCAAUAUUACGUCGG",
    "class": "yes (1)"
  },
  {
    "constructSequence": "UAAGAGCAAUAUUACGUUAA",
    "class": "no (0)"
  },
  {
    "constructSequence": "AACUAGCAAUAUUACGCAGA",
    "class": "yes (1)"
  },
  {
    "constructSequence": "UUUUAGCAAUAUUACGUAAU",
    "class": "yes (1)"
  },
  {
    "constructSequence": "GACAAGCAAUAUUACGAGCA",
    "class": "yes (1)"
  },
  {
    "constructSequence": "AUGGAGCAAUAUUACGGGCG",
    "class": "no (0)"
  }
]

The origin of these recorded values is the supplement of paper PMC7877785.
